- TARGET_UNDER_TEST: recombinant human mu (MOR) opioid receptor (Homo sapiens (Human), UniProt P35372)
- METHOD_SUMMARY: Opioid receptor radioligand binding assay, MOR
- SETUP_CONDITIONS: HEK293 cell membranes, 0.5 nM [3H]DAMGO; read-out: MOR, IC50
pIC50: −log10 of the molar value. Square brackets hold non-standard residues; d marks the D form. Peptide text beside a SMILES is read from it. * marks the point of attachment. Pyrrolidinyl(3-NH2,3-CO2Me) = COC(=O)C1(N)CCN(*)C1; dAla(cPr) = N[C@H](CC1CC1)C(=O)O
MEASUREMENT_NAME: pIC50

[[record]]
molecule = "CC(C)C[C@@H](NC(=O)[C@@H](Cc1ccccc1)NC(=O)[C@H](N)Cc1ccccc1)C(=O)N[C@H](CCCCN)C(=O)NCc1ccc(O)c(O)c1"
target_under_test = "recombinant human mu (MOR) opioid receptor (Homo sapiens (Human), UniProt P35372)"
measured_result = "< 5.00"

[[record]]
molecule = "CC(C)C[C@@H](NC(=O)[C@@H](Cc1ccccc1)NC(=O)[C@H](N)Cc1ccccc1)C(=O)N[C@H](CCCCN)C(=O)NCCOCCO"
target_under_test = "recombinant human mu (MOR) opioid receptor (Homo sapiens (Human), UniProt P35372)"
measured_result = 6.46

[[record]]
molecule = "COCCN(CCOC)C(=O)[C@@H](CCCCN)NC(=O)[C@@H](CC(C)C)NC(=O)[C@@H](Cc1ccccc1)NC(=O)[C@H](N)Cc1ccccc1"
target_under_test = "recombinant human mu (MOR) opioid receptor (Homo sapiens (Human), UniProt P35372)"
measured_result = "< 5.00"

[[record]]
molecule = "CNC(=O)N1CCN(C(=O)[C@@H](CCCCN)NC(=O)[C@@H](CC(C)C)NC(=O)[C@@H](Cc2ccccc2)NC(=O)[C@H](N)Cc2ccccc2)CC1"
target_under_test = "recombinant human mu (MOR) opioid receptor (Homo sapiens (Human), UniProt P35372)"
measured_result = "< 5.00"

[[record]]
molecule = "COCCOC(=O)C1(N)CCN(C(=O)[C@@H](CCCCN)NC(=O)[C@@H](CC(C)C)NC(=O)[C@@H](Cc2ccccc2)NC(=O)[C@H](N)Cc2ccccc2)C1 (some centres unmarked)"
target_under_test = "recombinant human mu (MOR) opioid receptor (Homo sapiens (Human), UniProt P35372)"
measured_result = 5.13

[[record]]
molecule = "CCOC(=O)C(=O)NC1CCN(C(=O)[C@@H](CCCCN)NC(=O)[C@@H](CC(C)C)NC(=O)[C@@H](Cc2ccccc2)NC(=O)[C@H](N)Cc2ccccc2)CC1"
target_under_test = "recombinant human mu (MOR) opioid receptor (Homo sapiens (Human), UniProt P35372)"
measured_result = 6.77

[[record]]
molecule = "COCCOCCNC(=O)[C@@H](CCCCN)NC(=O)[C@@H](CC(C)C)NC(=O)[C@@H](Cc1ccccc1)NC(=O)[C@H](N)Cc1ccccc1"
target_under_test = "recombinant human mu (MOR) opioid receptor (Homo sapiens (Human), UniProt P35372)"
measured_result = "< 5.00"

[[record]]
molecule = "COC(=O)C1(N)CCN(C(=O)[C@@H](CCCNC(=N)N)NC(=O)[C@@H](CC2CC2)NC(=O)[C@@H](Cc2ccccc2)NC(=O)[C@H](N)Cc2ccccc2)C1 (some centres unmarked) [Compound 133] (H-[dF][dF][dAla(cPr)][dR]-{Pyrrolidinyl(3-NH2,3-CO2Me)})"
target_under_test = "recombinant human mu (MOR) opioid receptor (Homo sapiens (Human), UniProt P35372)"
measured_result = "< 5.00"

[[record]]
molecule = "CC(C)C[C@@H](NC(=O)[C@@H](Cc1ccccc1)NC(=O)[C@H](N)Cc1ccccc1)C(=O)N[C@H](CCCCN)C(=O)N1CCC(NC(=O)C(N)=O)CC1"
target_under_test = "recombinant human mu (MOR) opioid receptor (Homo sapiens (Human), UniProt P35372)"
measured_result = "< 5.00"

[[record]]
molecule = "CCNC(=O)C(=O)N1CCN(C(=O)[C@@H](CCCCN)NC(=O)[C@@H](CC(C)C)NC(=O)[C@@H](Cc2ccccc2)NC(=O)[C@H](N)Cc2ccccc2)CC1"
target_under_test = "recombinant human mu (MOR) opioid receptor (Homo sapiens (Human), UniProt P35372)"
measured_result = "< 5.00"


Problem: Which value of pIC50 has been reported for "CC(C)C[C@@H](NC(=O)[C@@H](Cc1ccccc1)NC(=O)[C@H](N)Cc1ccccc1)C(=O)N[C@H](CCCCN)C(=O)NCc1cc[nH]c(=O)c1" in the records?
Result: < 5.00

Measured values drawn from patent US12215173B2 for this set.
